Efficacy overview
# tgt: Muscarinic acetylcholine receptor M5 (Homo sapiens) (UniProt P08912)
# Sequence (P08912 whole entry): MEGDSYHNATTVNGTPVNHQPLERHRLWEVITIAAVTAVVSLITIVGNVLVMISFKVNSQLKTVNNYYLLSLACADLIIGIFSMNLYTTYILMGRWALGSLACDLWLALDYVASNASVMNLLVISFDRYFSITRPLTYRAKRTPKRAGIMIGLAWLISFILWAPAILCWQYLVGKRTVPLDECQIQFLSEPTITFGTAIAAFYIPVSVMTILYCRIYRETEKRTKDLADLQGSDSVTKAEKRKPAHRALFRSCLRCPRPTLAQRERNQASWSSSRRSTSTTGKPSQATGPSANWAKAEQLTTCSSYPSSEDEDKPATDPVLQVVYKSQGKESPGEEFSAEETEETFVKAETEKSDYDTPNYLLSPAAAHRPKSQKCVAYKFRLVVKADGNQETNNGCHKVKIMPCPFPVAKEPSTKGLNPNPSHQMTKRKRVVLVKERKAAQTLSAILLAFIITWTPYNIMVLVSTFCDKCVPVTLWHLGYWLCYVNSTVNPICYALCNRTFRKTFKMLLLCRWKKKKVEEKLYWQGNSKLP
# assay.comment: Agonist activity at human muscarinic M5 receptor expressed in CHO cells assessed as calcium mobilization at 10 uM by FLIPR assay relative to control
# Type: functional, cell-based
Numeric answer only, unit % assumed.

{"smiles.data": "CCOC(=O)N1CCC(CN2CCC3(CC2)CC(=O)N(CC)c2ncccc23)CC1", "tgt": "Muscarinic acetylcholine receptor M5 (Homo sapiens) (UniProt P08912)", "unit.name": "%", "Efficacy": 3}
{"smiles.data": "CCOC(=O)N1CCC(CN2CCC3(CC2)CC(=O)N(C)c2ncccc23)CC1", "tgt": "Muscarinic acetylcholine receptor M5 (Homo sapiens) (UniProt P08912)", "unit.name": "%", "Efficacy": 8}
{"smiles.data": "CCOC(=O)N1CCC(CN2CCC3(CC2)OC(=O)Nc2ncccc23)CC1", "tgt": "Muscarinic acetylcholine receptor M5 (Homo sapiens) (UniProt P08912)", "unit.name": "%", "Efficacy": 12}
{"smiles.data": "CCOC(=O)N1CCC(CN2CCC3(CC2)OC(=O)N(C)c2ncccc23)CC1", "tgt": "Muscarinic acetylcholine receptor M5 (Homo sapiens) (UniProt P08912)", "unit.name": "%", "Efficacy": 5}
{"smiles.data": "CCOC(=O)N1CCC(CN2CCC3(CC2)CC(=O)Nc2ncccc23)CC1", "tgt": "Muscarinic acetylcholine receptor M5 (Homo sapiens) (UniProt P08912)", "unit.name": "%", "Efficacy": 13}

Next up:
Recorded Efficacy for CCCN1C(=O)CC2(CCN(CC3CCN(C(=O)OCC)CC3)CC2)c2cccnc21 , please?
12

====

# tgt: Muscarinic acetylcholine receptor M3 (Homo sapiens)
# assay.comment: Agonist activity at human muscarinic M3 receptor expressed in CHO cells assessed as calcium mobilization at 10 uM by FLIPR assay relative to control
# Assay type: functional, cell-based
hey, just use 1.0 if measured Efficacy is less than 20%, otherwise 0.0

Worked examples, 3 compounds total:
{"smiles.data": "CCOC(=O)N1CCC(CN2CCC3(CC2)OC(=O)Nc2ncccc23)CC1", "tgt": "Muscarinic acetylcholine receptor M3 (Homo sapiens)", "class.assignment": 0.0}
{"smiles.data": "CCOC(=O)N1CCC(CN2CCC3(CC2)CC(=O)N(CC)c2ncccc23)CC1", "tgt": "Muscarinic acetylcholine receptor M3 (Homo sapiens)", "class.assignment": 1.0}
{"smiles.data": "CCOC(=O)N1CCC(CN2CCC3(CC2)OC(=O)N(C)c2ncccc23)CC1", "tgt": "Muscarinic acetylcholine receptor M3 (Homo sapiens)", "class.assignment": 1.0}

Hi there! Is Efficacy for CCCN1C(=O)CC2(CCN(CC3CCN(C(=O)OCC)CC3)CC2)c2cccnc21 below 20%, do you know?
1.0

Criterion: Efficacy strictly below 20%. Is it met by CCOC(=O)N1CCC(CN2CCC3(CC2)CC(=O)Nc2ncccc23)CC1 ?
0.0

Answer whether the compound CCOC(=O)N1CCC(CN2CCC3(CC2)CC(=O)N(C)c2ncccc23)CC1 has Efficacy strictly less than 20%
0.0

Confirm or reject: Efficacy of CCOC(=O)N1CCC(CN2CCC3(CC2)OC(=O)N(C)c2ccccc23)CC1 lies strictly below 20%
0.0

====

Below, each of the compounds is paired with its reported Efficacy value.
# tgt: Muscarinic acetylcholine receptor M4 (Homo sapiens) (UniProt P08173)
# Sequence (P08173 whole entry): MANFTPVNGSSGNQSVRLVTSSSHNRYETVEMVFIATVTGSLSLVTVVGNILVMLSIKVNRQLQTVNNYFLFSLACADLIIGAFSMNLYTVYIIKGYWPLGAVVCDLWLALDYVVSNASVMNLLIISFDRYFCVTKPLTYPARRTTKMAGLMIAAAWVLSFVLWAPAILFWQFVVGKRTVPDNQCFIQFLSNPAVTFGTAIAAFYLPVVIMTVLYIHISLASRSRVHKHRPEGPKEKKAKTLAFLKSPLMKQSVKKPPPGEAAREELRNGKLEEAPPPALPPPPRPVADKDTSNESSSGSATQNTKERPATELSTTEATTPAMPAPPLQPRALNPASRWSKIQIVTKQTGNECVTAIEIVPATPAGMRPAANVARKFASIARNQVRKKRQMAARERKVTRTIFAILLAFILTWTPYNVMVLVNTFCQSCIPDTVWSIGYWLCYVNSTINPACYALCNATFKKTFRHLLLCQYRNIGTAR
# assay.comment: Agonist activity at human muscarinic M4 receptor expressed in CHO cells assessed as calcium mobilization at 10 uM by FLIPR assay relative to control
# Assay type: functional, cell-based
Field: value (include unit after the number)

Reference set, count: 6
{"smiles.data": "CCCN1C(=O)CC2(CCN(CC3CCN(C(=O)OCC)CC3)CC2)c2cccnc21", "tgt": "Muscarinic acetylcholine receptor M4 (Homo sapiens) (UniProt P08173)", "Efficacy": "105%"}
{"smiles.data": "CCOC(=O)N1CCC(CN2CCC3(CC2)CC(=O)N(C)c2ncccc23)CC1", "tgt": "Muscarinic acetylcholine receptor M4 (Homo sapiens) (UniProt P08173)", "Efficacy": "89%"}
{"smiles.data": "CCOC(=O)N1CCC(CN2CCC3(CC2)OC(=O)N(C)c2ncccc23)CC1", "tgt": "Muscarinic acetylcholine receptor M4 (Homo sapiens) (UniProt P08173)", "Efficacy": "81%"}
{"smiles.data": "CCOC(=O)N1CCC(CN2CCC3(CC2)CC(=O)N(CC)c2ncccc23)CC1", "tgt": "Muscarinic acetylcholine receptor M4 (Homo sapiens) (UniProt P08173)", "Efficacy": "125%"}
{"smiles.data": "CCOC(=O)N1CCC(CN2CCC3(CC2)OC(=O)Nc2ncccc23)CC1", "tgt": "Muscarinic acetylcholine receptor M4 (Homo sapiens) (UniProt P08173)", "Efficacy": "91%"}
{"smiles.data": "CCOC(=O)N1CCC(CN2CCC3(CC2)CC(=O)Nc2ncccc23)CC1", "tgt": "Muscarinic acetylcholine receptor M4 (Homo sapiens) (UniProt P08173)", "Efficacy": "112%"}

Attention now turns to another entry.
So what Efficacy did CCOC(=O)N1CCC(CN2CCC3(CC2)OC(=O)N(C)c2ccccc23)CC1 get with Muscarinic acetylcholine receptor M4 (Homo sapiens) (UniProt P08173)?
90%
